TEST READOUT: melting point

Previously resolved entries follow.
> print(dat)
                                   molecule       measured
1               O=c1[nH]c2cc(Br)ccc2c(=O)o1  280 to 281 °C
2  COc1cc2c(cc1OC)C(=CN1CCN(C(=O)C3CCCCO3)CC1)C(=O)N2 (stereo unspecified)  208 to 210 °C
3  COc1cn(-c2ccc(N3CCCC(F)(F)C3)cc2F)nc(-c2ccnn2-c2ccccc2)c1=O  182 to 187 °C
4  Cc1ccccc1S(=O)(=O)NC1CCc2sc(-c3ccc(=O)[nH]n3)cc2C1 (stereo unspecified)  242 to 247 °C
5              CSc1nc(N)c2ncn(C3CCCCC3)c2n1  222 to 224 °C

Here are 4 molecules. What values of melting point were reported for them?
1. OC(Cc1ccc(F)cc1)(Cn1cncn1)c1ccccc1 (stereo unspecified)
2. CNc1nc(-c2ccc3c(c2)CCC3)c(-c2cccnc2)s1
3. CC(C)(C)c1ccc(C(=O)Nc2ccc(OCC(=O)O)cc2)cc1
4. CC1(c2ccc(Br)cc2)Cc2cc(OCC(=O)O)c(Cl)c(Cl)c2C1=O (stereo unspecified)

Response:
1. 116 to 118 °C
2. 169 to 170 °C
3. 179 to 181 °C
4. 171 to 172 °C

Here are 7 molecules. What values of melting point were reported for them?
1. O=C(c1c[nH]nc1-c1ccccc1)C(CCN1CCC(O)(c2ccccc2)CC1)c1ccc(Cl)c(Cl)c1 (stereo unspecified)
2. CC(COc1ccc(CC2SC(=O)NC2=O)cc1)NCC(O)c1cccc(Cl)c1 (stereo unspecified)
3. CCOC(=O)CCC1=C(C#N)C(c2ccccc2Cl)c2c[nH]nc2N1 (stereo unspecified)
4. O=S1(=O)N=CN(C2CC2)c2ccc(F)c(F)c21
5. Cc1csc2c1-n1cccc1/C2=N/OCCBr
6. CCOC(=O)C1(C(=O)Nc2ccc(Br)cc2C)CC1
7. CN1CCSC1=NC(=S)Nc1ccccc1

Response:
99 to 101 °C
100 to 125 °C
172 to 174 °C
205 to 206 °C
92 °C
89.5 to 90 °C
169 to 170 °C

Here are 5 molecules. What values of melting point were reported for them?
1. CCOC(=O)c1c(C(F)(F)F)nc(C(F)(F)Cl)c(C(=O)OC)c1N1CCCC1
2. CN(CCO)c1ccc(C=O)cc1
3. Cn1cc(-c2ccccc2)c(=O)c(-c2ccc(F)cc2Cl)c1
4. COc1cc(C#N)ccc1Cc1cn(C)c2ccc([N+](=O)[O-])cc12
5. CNC(=O)C(Cc1ccc(OC)cc1)NC(=O)C(C)(CC(C)C)c1ccc(Cl)cc1S (stereo unspecified)

Response:
72 to 73.5 °C
72 °C
190 to 192 °C
200 to 201 °C
174 to 178 °C

###

TEST READOUT: melting point

Here are 4 compounds. What values of melting point were reported for them?
1. CCCc1[nH]c2cc(C(=O)OC)ccc2c1C(=O)C=C(C)C
2. COc1cc2c(O)nc(-c3ccc(Cl)cc3)nc2c(OC)c1OC
3. N#CCc1c[nH]c2ccc(NC(N)=S)cc12
4. CC1(C)Oc2ccc(C#N)cc2[C@@H](n2cnccc2=O)[C@@H]1O (relative stereo)

Response:
1: 146 to 147 °C; 2: 289 °C; 3: 212 to 214 °C; 4: 202 to 203 °C

Request: Fill blank: measured melting point of the compound Nc1c(Cl)cc(C(O)CNCCCCCCOCCCc2ccc(CO)cc2)cc1Cl (stereo not given) is ____.
Response: 56 to 59 °C

Where these numbers come from: a melting point compilation (Tetko et al.; mined from patent text by program, amines drawn as free bases though some values may be those of a salt)
